# ASSAY PROTOCOL: Unbound plasma and brain levels of lasmiditan in rats from dural PPE studies
# Type: in vivo, Sprague-Dawley rats
# CONDITION DESCRIPTION: male, Sprague-Dawley, plasma; rat, 10 mg/kg po, 24 hrs post-dose; read-out: Unbound Plasma Cone (mean ± SD; n = 4)
# Experimental: Lasmiditan-hemisuccinate is dissolved in sterile water. All doses of lasmiditan are reported as free base equivalent doses, accounting for the weight of the salt. […] The brain and plasma samples are frozen at −80° C. until thawed for compound quantification. […] A fluorescence microscope (Zeiss) equipped with a grating monochromator and a spectrophotometer is used to quantify the amount of FITC-BSA dye in each dural sample. […]
QUANTITY MEASURED: concentration at 24 h
Provide the measurement as a number trailed by its unit.

Q) Specify measured concentration at 24 h for CN1CCC(C(=O)c2cccc(NC(=O)c3c(F)cc(F)cc3F)n2)CC1 [Lasmiditan] .
A) 6.2 nM

* * *

# ASSAY PROTOCOL: Unbound plasma and brain levels of lasmiditan in rats from dural PPE studies
# Format: in vivo, Sprague-Dawley rats
# CONDITION DESCRIPTION: male, Sprague-Dawley, brain; rat, 1 mg/kg po, 1 hr post-dose; read-out: Unbound Brain Cone (mean ± SD; n = 4)
QUANTITY MEASURED: concentration at 1 h (nM)
// note: answer is a bare numeric in nM

Q) Specify measured concentration at 1 h for CN1CCC(C(=O)c2cccc(NC(=O)c3c(F)cc(F)cc3F)n2)CC1 .
A) 16.6
